TARGET OR SYSTEM: T1, recombinant, soluble human ASGR-1 (human, UniProt P07306 62-291)
T1 construct: biotinylated in the binning assay; also called soluble huASGR-1; Soluble ASGR-1 (Amgen)
T1 sequence: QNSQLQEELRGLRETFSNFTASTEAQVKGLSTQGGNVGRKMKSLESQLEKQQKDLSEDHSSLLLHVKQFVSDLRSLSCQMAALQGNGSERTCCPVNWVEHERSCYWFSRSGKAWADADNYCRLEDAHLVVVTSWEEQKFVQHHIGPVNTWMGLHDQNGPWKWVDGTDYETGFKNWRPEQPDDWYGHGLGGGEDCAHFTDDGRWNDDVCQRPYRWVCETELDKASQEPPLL
PROTOCOL: Octet BLI dissociation, pH 5.6 plus calcium
RECORDED ENDPOINT: % Change Compared to pH 7.4 + Calcium (%)
Report as a plain number; the unit % is understood.

BINDER	% Change Compared to pH 7.4 + Calcium, %
218G4 (antibody, V domains shown, hybridoma mAb) VH: QVQLVESGGGVVQPGRSLRLSCAASGFTFSSYGLHWVRQAPGKGLEWVAVIWYDGSNKYYADSVKGRFTISRDNSKNTLYLQMNSLRVEDTAVYYCANWYYYYYGMDVWGQGTTVTVSS VL: QSVLTQPPSVSAAPGQKVTISCSGSSSNIGNNYVSWYQQLPGTAPKLLLYDSNKRPSGIPARFSGSKSGTSATLGITGLQTGDEADYYCGTWDSSLNTVVFGGGTKLTVL	-4
25A4 (antibody, V domains shown, hybridoma mAb) VH: QVLLVQSGAEVKRPGASVKVSCKASGYTFTNYDINWVRQATGQGLEWMGWMYPNSGNTGYAQKFQGRVTMTRNTSISTAYMELSSLRSEDTAVYYCASSSGWYYFDYWGQGTLVTVSS VL: DIVMTQFPDSLAVSLGERATIKCKSSQSVLYSSHNNNYLAWYQQKPGQPPKLLLYWASTRESGVPDRFSGSGSGTEFTLTISSLEAEDVAVYYCQQYYSTPPTFGQGTKVEIK	-3

Next binder, % Change Compared to pH 7.4 + Calcium to be filled in.
Endpoint output: % Change Compared to pH 7.4 + Calcium of 202A3 (antibody, V domains shown, hybridoma mAb) VH: QVQLEQSGAEVKKPGASVKVSCKASGYTFTSYDINWVRQATGQGLEWLGWMNPKRGNTGYAQKFQGRVTMTRNTSISTAHMELSSLRSEDTAVYYCARGRYSREDYYYYYDMDVWGQGTTVTVSS VL: DIQMSQSPSSLSASVGDRVTITCRASQGIRNDLGWYQQKPGKAPKRLICAASRLQSGVPSRFSGSGSGTEFTLTISSLQPEDFAIYYCLQHHDYPFTFGPGTKVDIK . Value? -22

// provenance: patent US20190248902A1
